test: In vivo pharmacokinetics study; conditions: male, Sprague-Dawley, plasma; rat, PO 10 mg/kg, mean
assay readout: Tmax (h)

compound="Cc1ccc(NC(=O)c2ccc(CN3CCN(C)CC3)c(C(F)(F)F)c2)cc1OC1CCN(C(=O)c2cccnc2)CC1 [CHMFL-074]" assay_readout=Tmax result_value=4

----------
test: In vivo pharmacokinetics study; details: male, Sprague-Dawley, plasma; rat, PO 10 mg/kg; read-out: F (bioavailability)
assay readout: bioavailability

structure_notation=Cc1ccc(NC(=O)c2ccc(CN3CCN(C)CC3)c(C(F)(F)F)c2)cc1OC1CCN(C(=O)c2cccnc2)CC1 result_value=42.9%

----------
biological target: BCR-ABL (Homo sapiens); construct: BCR N-terminal part (natural fusion partner of p210 BCR-ABL); endogenous in cells; assay: BCR-ABL auto-phosphorylation (Y245) immunoblotting in K562 cells
pEC50: −log10 of the molar value.
assay readout: pEC50

structure_notation=Cc1ccc(NC(=O)c2ccc(CN3CCN(C)CC3)c(C(F)(F)F)c2)cc1OC1CCN(C(=O)c2cccnc2)CC1 result_value="> 7.00"

----------
assay: In vivo pharmacokinetics study; conditions: male, Sprague-Dawley, plasma; rat, PO 10 mg/kg, mean
assay readout: AUC(0-inf) (ng·h/mL)

compound="Cc1ccc(NC(=O)c2ccc(CN3CCN(C)CC3)c(C(F)(F)F)c2)cc1OC1CCN(C(=O)c2cccnc2)CC1 [CHMFL-074]" unit_abbrev=ng·h/mL result_value=1460

----------
test system: K562; test: Colony formation assay; format: cell-based; conditions: Homo sapiens, 360 h; K562, soft agar, 15 days
pEC50: −log10 of the molar value.
assay readout: pEC50

structure_notation=Cc1ccc(NC(=O)c2ccc(CN3CCN(C)CC3)c(C(F)(F)F)c2)cc1OC1CCN(C(=O)c2cccnc2)CC1 assay_readout=pEC50 result_value=8.40

----------
assay: In vivo pharmacokinetics study; details: male, Sprague-Dawley, plasma; rat, IV 1mg/kg, mean; read-out: MRT(0-∞)
assay readout: MRT inf (h)

structure_notation=Cc1ccc(NC(=O)c2ccc(CN3CCN(C)CC3)c(C(F)(F)F)c2)cc1OC1CCN(C(=O)c2cccnc2)CC1 unit_abbrev=h result_value=1.29

----------
Assay: In vivo pharmacokinetics study
Details: male, Sprague-Dawley, plasma; rat, IV 1mg/kg, mean
Procedure: The final concentration of the stock solution was 1 mg/mL for administration. […] Each time about 0.2 mL blood was collected through the jugular vein adding heparin for anticoagulation and kept on ice. Then plasma was separated by centrifugation at 8000 rpm for 6 minutes at 2–8°C. The obtained plasma was stored at −80°C before analysis. After finishing the test, all surviving animals will be transferred to the repository or euthanasia (CO2 asphyxiation).
assay readout: AUC(0-inf) (ng·h/mL)

structure_notation=Cc1ccc(NC(=O)c2ccc(CN3CCN(C)CC3)c(C(F)(F)F)c2)cc1OC1CCN(C(=O)c2cccnc2)CC1 assay_readout=AUC(0-inf) unit_abbrev=ng·h/mL result_value=340

----------
test: In vivo pharmacokinetics study; conditions: male, Sprague-Dawley, plasma; rat, IV 1mg/kg, mean
assay readout: Tmax (min)

structure_notation=Cc1ccc(NC(=O)c2ccc(CN3CCN(C)CC3)c(C(F)(F)F)c2)cc1OC1CCN(C(=O)c2cccnc2)CC1 unit_abbrev=min result_value=1.2

----------
biological target: c-KIT (Homo sapiens)
Sequence (P10721 26-976): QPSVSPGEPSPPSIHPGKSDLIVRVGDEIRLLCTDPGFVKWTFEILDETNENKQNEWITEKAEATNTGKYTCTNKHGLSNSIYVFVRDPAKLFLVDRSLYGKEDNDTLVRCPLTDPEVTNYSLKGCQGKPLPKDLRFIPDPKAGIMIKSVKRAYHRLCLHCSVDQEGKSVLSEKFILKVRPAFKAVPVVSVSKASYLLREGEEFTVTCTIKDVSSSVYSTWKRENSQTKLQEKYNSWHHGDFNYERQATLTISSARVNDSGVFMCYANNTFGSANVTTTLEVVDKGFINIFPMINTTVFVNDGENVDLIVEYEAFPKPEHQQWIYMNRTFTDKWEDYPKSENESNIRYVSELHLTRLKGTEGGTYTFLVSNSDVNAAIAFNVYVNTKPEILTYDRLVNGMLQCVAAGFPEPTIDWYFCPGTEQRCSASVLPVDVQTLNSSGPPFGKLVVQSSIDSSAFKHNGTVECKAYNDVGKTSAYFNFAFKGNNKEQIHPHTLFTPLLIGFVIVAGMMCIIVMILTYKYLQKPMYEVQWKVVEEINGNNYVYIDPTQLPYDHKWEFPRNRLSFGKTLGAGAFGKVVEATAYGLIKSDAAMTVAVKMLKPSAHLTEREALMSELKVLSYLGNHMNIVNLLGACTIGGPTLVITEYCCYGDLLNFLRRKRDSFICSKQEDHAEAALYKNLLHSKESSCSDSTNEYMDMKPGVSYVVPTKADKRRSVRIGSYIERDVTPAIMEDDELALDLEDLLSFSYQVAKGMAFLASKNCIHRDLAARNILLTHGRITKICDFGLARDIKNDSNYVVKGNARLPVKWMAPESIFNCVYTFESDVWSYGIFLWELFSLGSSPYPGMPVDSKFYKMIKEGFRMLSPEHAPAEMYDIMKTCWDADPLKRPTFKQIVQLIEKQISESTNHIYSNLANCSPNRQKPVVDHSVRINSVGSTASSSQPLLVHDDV
assay readout: IC50

structure_notation=Cc1ccc(NC(=O)c2ccc(CN3CCN(C)CC3)c(C(F)(F)F)c2)cc1OC1CCN(C(=O)c2cccnc2)CC1 result_value="289 nM"

----------
Molecular target: ABL1 kinase (Homo sapiens, UniProt P00519)
Sequence (P00519 229-500): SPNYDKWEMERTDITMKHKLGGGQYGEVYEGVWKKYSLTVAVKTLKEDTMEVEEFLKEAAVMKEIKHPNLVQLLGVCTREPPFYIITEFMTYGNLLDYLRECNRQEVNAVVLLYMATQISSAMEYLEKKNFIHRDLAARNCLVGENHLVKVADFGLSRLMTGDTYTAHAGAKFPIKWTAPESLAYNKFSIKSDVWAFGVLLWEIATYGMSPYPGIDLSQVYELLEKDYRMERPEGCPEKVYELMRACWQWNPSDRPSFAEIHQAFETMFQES
assay readout: IC50 (nM)

structure_notation=Cc1ccc(NC(=O)c2ccc(CN3CCN(C)CC3)c(C(F)(F)F)c2)cc1OC1CCN(C(=O)c2cccnc2)CC1 result_value=25

----------
test: In vivo pharmacokinetics study; settings: male, Sprague-Dawley, plasma; rat, IV 1mg/kg, mean; read-out: Vz
assay readout: Vd (L/kg)

structure_notation=Cc1ccc(NC(=O)c2ccc(CN3CCN(C)CC3)c(C(F)(F)F)c2)cc1OC1CCN(C(=O)c2cccnc2)CC1 result_value=5.25

----------
molecular target: UniProt P16234
Sequence (P16234 24-1089): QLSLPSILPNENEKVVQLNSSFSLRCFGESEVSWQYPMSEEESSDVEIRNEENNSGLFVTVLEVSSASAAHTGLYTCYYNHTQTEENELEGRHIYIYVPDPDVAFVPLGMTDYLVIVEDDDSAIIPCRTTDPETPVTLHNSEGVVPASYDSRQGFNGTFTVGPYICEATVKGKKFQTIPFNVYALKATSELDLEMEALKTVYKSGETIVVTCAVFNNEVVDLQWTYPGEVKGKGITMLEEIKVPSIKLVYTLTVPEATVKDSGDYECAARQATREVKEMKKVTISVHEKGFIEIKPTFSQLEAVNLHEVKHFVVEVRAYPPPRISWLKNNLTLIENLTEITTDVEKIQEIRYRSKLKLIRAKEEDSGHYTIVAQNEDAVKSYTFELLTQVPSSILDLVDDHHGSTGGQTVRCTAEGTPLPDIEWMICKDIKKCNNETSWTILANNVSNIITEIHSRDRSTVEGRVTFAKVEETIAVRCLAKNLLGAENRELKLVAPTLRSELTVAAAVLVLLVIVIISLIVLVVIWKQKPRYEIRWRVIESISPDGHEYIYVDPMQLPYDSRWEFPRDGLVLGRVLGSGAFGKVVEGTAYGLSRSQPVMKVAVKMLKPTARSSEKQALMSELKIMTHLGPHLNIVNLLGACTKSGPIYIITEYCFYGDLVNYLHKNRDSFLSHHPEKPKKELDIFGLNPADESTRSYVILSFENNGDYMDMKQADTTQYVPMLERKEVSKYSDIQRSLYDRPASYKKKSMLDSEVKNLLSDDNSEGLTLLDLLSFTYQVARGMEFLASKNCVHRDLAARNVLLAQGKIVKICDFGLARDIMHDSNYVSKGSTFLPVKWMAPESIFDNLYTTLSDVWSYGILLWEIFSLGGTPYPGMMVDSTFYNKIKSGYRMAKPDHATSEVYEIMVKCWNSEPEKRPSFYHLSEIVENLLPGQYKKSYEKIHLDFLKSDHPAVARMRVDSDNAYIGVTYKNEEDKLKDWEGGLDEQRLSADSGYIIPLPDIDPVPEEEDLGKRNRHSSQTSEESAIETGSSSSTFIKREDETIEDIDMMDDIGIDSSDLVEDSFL
assay readout: IC50 (nM)

structure_notation=Cc1ccc(NC(=O)c2ccc(CN3CCN(C)CC3)c(C(F)(F)F)c2)cc1OC1CCN(C(=O)c2cccnc2)CC1 unit_abbrev=nM result_value=71

----------
system: KU812; assay: Colony formation assay; type: cell-based; conditions: Homo sapiens, 360 h; KU812, soft agar, 15 days
pEC50: −log10 of the molar value.
assay readout: pEC50

structure_notation=Cc1ccc(NC(=O)c2ccc(CN3CCN(C)CC3)c(C(F)(F)F)c2)cc1OC1CCN(C(=O)c2cccnc2)CC1 assay_readout=pEC50 result_value=8.10

Source listed as paper PMC5216742.
